Each entry below carries its reported Enzyme activity: amount of released 4-methylumbelliferone during 5 hours of incubation.
- Test system: Aureobasidium pullulans (QM 3092)
- ASSAY OVERVIEW: Screening of fungi for enzyme activity with 4-methylumbelliferone-labelled substrates
- Assay type: cell-based
- PARTICULARS: Aureobasidium pulluians (QM 3092); vegetable juice medium; substrate 10 μM, 25° C., pH 5
Write the number in µmol without appending the unit.

INSERT INTO measurements (molecule, tested_target, unit_info, observed_result) VALUES
  ('CC(=O)N[C@H]1[C@H](Oc2ccc3c(C)cc(=O)oc3c2)O[C@H](COS(=O)(=O)O)[C@@H](O)[C@@H]1O [substrate 1]', 'Aureobasidium pullulans (QM 3092)', 'µmol', 0);

Item: Cc1cc(=O)oc2cc(O[C@@H]3O[C@H](CO)[C@@H](O[C@@H]4O[C@H](CO)[C@H](O)[C@H](O)[C@H]4O)[C@H](O)[C@H]3O)ccc12 [substrate 8, 4-methylumbelliferyl β-D-lactoside] | Enzyme activity: amount of released 4-methylumbelliferone during 5 hours of incubation: 0

###

Each entry below carries its reported Enzyme activity: amount of released 4-methylumbelliferone.
- Test system: Aspergillus oryzae (AGM 11)
- ASSAY OVERVIEW: Screening of fungi for enzyme activity with 4-methylumbelliferone-labelled substrates
- Assay type: cell-based
- PARTICULARS: mineral medium, substrate 10 μM, 25° C., pH 5
Write the number in µmol without appending the unit.

Here are 2 compounds together with their reported answers.
INSERT INTO measurements (compound, observed_result) VALUES
  ('Cc1cc(=O)oc2cc(O[C@@H]3O[C@H](CO)[C@@H](O)[C@H](O)[C@@H]3O)ccc12 [substrate 6, 4-methylumbelliferyl β-D-mannopyranoside]', 0),
  ('Cc1cc(=O)oc2cc(O[C@@H]3O[C@H](C)[C@H](O)[C@H](O)[C@H]3O)ccc12 [substrate 11, 4-methylumbelliferyl β-D-fucoside]', 0);

Now, please, on to the next compound.
Item: CC(=O)N[C@H]1[C@H](Oc2ccc3c(C)cc(=O)oc3c2)O[C@H](COS(=O)(=O)O)[C@@H](O)[C@@H]1O [substrate 1] | Enzyme activity: amount of released 4-methylumbelliferone: 0

###

- System: Schizophyllum commune (AGM 25)
- ASSAY OVERVIEW: Screening of fungi for enzyme activity with 4-methylumbelliferone-labelled substrates
- Type: cell-based
- PARTICULARS: vegetable juice medium, substrate 10 μM, 25° C., pH 5
Each entry below carries its reported Enzyme activity: amount of released 4-methylumbelliferone during 5 hours of incubation.
Write the number in µmol without appending the unit.

INSERT INTO results (compound, unit_info, observed_result) VALUES
  ('CC(=O)N[C@H]1[C@H](Oc2ccc3c(C)cc(=O)oc3c2)O[C@H](COS(=O)(=O)O)[C@@H](O)[C@@H]1O [substrate 1]', 'µmol', 0),
  ('Cc1cc(=O)oc2cc(O[C@H]3O[C@H](C)[C@H](O)[C@H](O)[C@H]3O)ccc12 [substrate 10, 4-methylumbelliferyl α-D-fucoside]', 'µmol', 0);

Now, please, on to the next compound.
Item: Cc1cc(=O)oc2cc(O[C@H]3O[C@H](CO)[C@@H](O)[C@H](O)[C@H]3O)ccc12 [substrate 7, 4-methylumbelliferyl α-D-glucoside] | Enzyme activity: amount of released 4-methylumbelliferone during 5 hours of incubation: 0

###

Each entry below carries its reported Enzyme activity: amount of released 4-methylumbelliferone during 5 hours of incubation.
- System: Penicillium solitum (IBT 13771)
- ASSAY OVERVIEW: Screening of fungi for enzyme activity with 4-methylumbelliferone-labelled substrates
- Assay type: cell-based
- PARTICULARS: vegetable juice medium, substrate 10 μM, 25° C., pH 5
Write the number in µmol without appending the unit.

INSERT INTO assay_data (compound, observed_result) VALUES
  ('CC(=O)N[C@H]1[C@H](Oc2ccc3c(C)cc(=O)oc3c2)O[C@H](COS(=O)(=O)O)[C@@H](O)[C@@H]1O [substrate 1]', 0);

Now, please, on to the next compound.
Item: Cc1cc(=O)oc2cc(O[C@@H]3O[C@H](CO)[C@@H](O)[C@H](O)[C@@H]3O)ccc12 [substrate 6, 4-methylumbelliferyl β-D-mannopyranoside] | Enzyme activity: amount of released 4-methylumbelliferone during 5 hours of incubation: 0

###

- Tested on: Aspergillus oryzae (AGM 11)
- ASSAY OVERVIEW: Screening of fungi for enzyme activity with 4-methylumbelliferone-labelled substrates
- Type: cell-based
- PARTICULARS: mineral medium, substrate 10 μM, 25° C., pH 5
QUANTITY: Enzyme activity: amount of released 4-methylumbelliferone
Please append the unit to your numeric answer.

INSERT INTO measurements (compound, observed_result) VALUES
  ('Cc1cc(=O)oc2cc(O[C@@H]3OC[C@@H](O)[C@H](O)[C@H]3O)ccc12 [substrate 9, 4-methylumbelliferyl β-D-xyloside]', '0 µmol');

Item: Cc1cc(=O)oc2cc(OC3OC(CO)C(O)C(O)C3O)ccc12 [substrate 5, 4-methylumbelliferyl α-D-mannopyranoside] | Enzyme activity: amount of released 4-methylumbelliferone: 0 µmol

Item: Cc1cc(=O)oc2cc(O[C@H]3O[C@H](CO)[C@@H](O)[C@H](O)[C@H]3O)ccc12 [substrate 7, 4-methylumbelliferyl α-D-glucoside] | Enzyme activity: amount of released 4-methylumbelliferone: 0 µmol

Item: Cc1cc(=O)oc2cc(O[C@H]3O[C@H](C)[C@H](O)[C@H](O)[C@H]3O)ccc12 [substrate 10, 4-methylumbelliferyl α-D-fucoside] | Enzyme activity: amount of released 4-methylumbelliferone: 0 µmol

Item: CC(=O)N[C@H]1[C@@H](Oc2ccc3c(C)cc(=O)oc3c2)O[C@H](CO)[C@@H](O)[C@@H]1O [substrate 2] | Enzyme activity: amount of released 4-methylumbelliferone: 0 µmol

Item: Cc1cc(=O)oc2cc(O[C@@H]3O[C@H](CO)[C@@H](O[C@@H]4O[C@H](CO)[C@H](O)[C@H](O)[C@H]4O)[C@H](O)[C@H]3O)ccc12 [substrate 8, 4-methylumbelliferyl β-D-lactoside] | Enzyme activity: amount of released 4-methylumbelliferone: 0 µmol

###

- System: Aspergillus oryzae (AGM 11)
- ASSAY OVERVIEW: Screening of fungi for enzyme activity with 4-methylumbelliferone-labelled substrates
- Assay type: cell-based
- PARTICULARS: vegetable juice medium, substrate 10 μM, 25° C., pH 5
QUANTITY: Enzyme activity: amount of released 4-methylumbelliferone during 5 hours of incubation

INSERT INTO measurements (molecule, observed_result) VALUES
  ('Cc1cc(=O)oc2cc(O[C@@H]3OC[C@@H](O)[C@H](O)[C@H]3O)ccc12 [substrate 9, 4-methylumbelliferyl β-D-xyloside]', '*** (2 ≦ ***)'),
  ('Cc1cc(=O)oc2cc(O[C@@H]3O[C@H](CO)[C@@H](O)[C@H](O)[C@@H]3O)ccc12 [substrate 6, 4-methylumbelliferyl β-D-mannopyranoside]', '*** (2 ≦ ***)');

###

Each entry below carries its reported Enzyme activity: amount of released 4-methylumbelliferone during 5 hours of incubation.
- System: Penicillium commune (IBT 13713)
- ASSAY OVERVIEW: Screening of fungi for enzyme activity with 4-methylumbelliferone-labelled substrates
- Assay type: cell-based
- PARTICULARS: vegetable juice medium, substrate 10 μM, 25° C., pH 5
Write the number in µmol without appending the unit.

INSERT INTO results (compound, observed_result) VALUES
  ('CC(=O)N[C@H]1[C@@H](Oc2ccc3c(C)cc(=O)oc3c2)O[C@H](CO)[C@@H](O)[C@@H]1O [substrate 2]', 0);

Item: Cc1cc(=O)oc2cc(O[C@@H]3O[C@H](CO)[C@@H](O[C@@H]4O[C@H](CO)[C@H](O)[C@H](O)[C@H]4O)[C@H](O)[C@H]3O)ccc12 [substrate 8, 4-methylumbelliferyl β-D-lactoside] | Enzyme activity: amount of released 4-methylumbelliferone during 5 hours of incubation: 0

###

Each entry below carries its reported Enzyme activity: amount of released 4-methylumbelliferone.
- Test system: Trametes versicolor (AGM 24)
- ASSAY OVERVIEW: Screening of fungi for enzyme activity with 4-methylumbelliferone-labelled substrates
- Assay type: cell-based
- PARTICULARS: mineral medium, substrate 10 μM, 25° C., pH 5

INSERT INTO measurements (compound, tested_target, observed_result) VALUES
  ('Cc1cc(=O)oc2cc(O[C@H]3O[C@H](CO)[C@@H](O)[C@H](O)[C@H]3O)ccc12 [substrate 7, 4-methylumbelliferyl α-D-glucoside]', 'Trametes versicolor (AGM 24)', '0 µmol'),
  ('Cc1cc(=O)oc2cc(O[C@@H]3O[C@H](CO)[C@@H](O[C@@H]4O[C@H](CO)[C@H](O)[C@H](O)[C@H]4O)[C@H](O)[C@H]3O)ccc12 [substrate 8, 4-methylumbelliferyl β-D-lactoside]', 'Trametes versicolor (AGM 24)', '0 µmol');

Now, please, on to the next compound.
Item: CC(=O)N[C@H]1[C@@H](Oc2ccc3c(C)cc(=O)oc3c2)O[C@H](CO)[C@@H](O)[C@@H]1O [substrate 2] | Enzyme activity: amount of released 4-methylumbelliferone: 0 µmol
